Entry source: the supplement of paper PMC8728848

target: Gal(a1-3)Gal(b1-4)[Fuc(a1-3)]GlcNAc(b1-2)Man(a1-3)[Gal(a1-3)Gal(b1-4)[Fuc(a1-3)]GlcNAc(b1-2)Man(a1-6)]Man(b1-4)GlcNAc(b1-4)GlcNAc; test: glycan array binding signal (z-score within array); higher = stronger binding; conditions: glycan notation: IUPAC condensed, linker removed
The entries come from a sample that favours the strongest signals as a whole.
The label depends only on glycan array binding signal (z-score): yes if it is at least 0.3, no if it is smaller.

- BINDER: "Arath Fbox (Arabidopsis thaliana), NP_178341.1 (protein) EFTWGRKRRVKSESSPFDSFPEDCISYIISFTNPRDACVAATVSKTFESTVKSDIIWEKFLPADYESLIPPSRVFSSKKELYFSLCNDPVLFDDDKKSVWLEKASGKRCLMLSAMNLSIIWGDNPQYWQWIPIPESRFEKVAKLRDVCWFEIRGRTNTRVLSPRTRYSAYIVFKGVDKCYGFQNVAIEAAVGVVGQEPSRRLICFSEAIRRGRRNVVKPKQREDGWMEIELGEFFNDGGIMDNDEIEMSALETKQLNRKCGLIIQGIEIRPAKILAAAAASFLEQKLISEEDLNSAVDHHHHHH"
  CLASS NAME: "no"
- BINDER: "DCIR1 (Mus musculus), Q9QZ15 (protein) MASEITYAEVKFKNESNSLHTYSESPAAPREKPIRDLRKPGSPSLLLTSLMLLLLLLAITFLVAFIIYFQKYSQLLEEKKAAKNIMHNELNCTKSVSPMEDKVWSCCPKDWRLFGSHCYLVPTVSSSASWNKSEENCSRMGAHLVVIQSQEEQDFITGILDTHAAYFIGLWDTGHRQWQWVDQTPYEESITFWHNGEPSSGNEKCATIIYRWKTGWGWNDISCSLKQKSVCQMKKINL"
  CLASS NAME: "yes"
- BINDER: "GSL-I (Griffonia simplicifolia) (protein) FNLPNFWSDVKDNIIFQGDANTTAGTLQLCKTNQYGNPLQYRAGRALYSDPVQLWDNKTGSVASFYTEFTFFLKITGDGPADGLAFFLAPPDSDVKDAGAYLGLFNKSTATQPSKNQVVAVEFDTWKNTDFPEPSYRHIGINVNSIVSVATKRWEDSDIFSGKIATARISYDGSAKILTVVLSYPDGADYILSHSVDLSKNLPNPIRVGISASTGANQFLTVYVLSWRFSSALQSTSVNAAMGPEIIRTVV"
  CLASS NAME: "no"
- BINDER: "Thrombomodulin (Mus musculus) (protein) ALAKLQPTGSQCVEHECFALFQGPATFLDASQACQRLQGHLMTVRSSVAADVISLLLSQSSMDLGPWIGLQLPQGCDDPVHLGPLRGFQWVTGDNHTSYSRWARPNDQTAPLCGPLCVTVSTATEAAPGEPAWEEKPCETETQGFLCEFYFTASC"
  CLASS NAME: "yes"
- BINDER: "GNL (Galanthus nivalis) (protein) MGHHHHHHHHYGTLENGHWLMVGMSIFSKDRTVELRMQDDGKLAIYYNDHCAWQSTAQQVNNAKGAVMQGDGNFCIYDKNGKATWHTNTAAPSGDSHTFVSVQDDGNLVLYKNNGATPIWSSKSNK"
  CLASS NAME: "no"
- BINDER: "GNA (Galanthus nivalis), P30617 (protein) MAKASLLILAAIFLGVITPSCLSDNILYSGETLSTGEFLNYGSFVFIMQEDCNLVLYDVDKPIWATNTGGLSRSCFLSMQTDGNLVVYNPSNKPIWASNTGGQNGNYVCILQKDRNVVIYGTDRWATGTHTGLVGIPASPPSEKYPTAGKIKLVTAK"
  CLASS NAME: "no"
